tested on: TK-10; assay: NCI tumour cell line growth inhibition, 48 h
Active and inactive are the calls of the source. Cut-off read from the data, not from the text of the source: active = GI50 up to about 1.1 µM and inactive = higher.
Measure name: GI50

molecule=c1ccc2cc3[s+]snc3cc2c1 study_system=TK-10 measure_name=GI50 result="> 100 µM (inactive)"
molecule="CCC12C=C(C(=O)OC)N3c4ccccc4C4CCN(CCC1)C2C43 (stereo unspecified)" study_system=TK-10 measure_name=GI50 result="> 100 µM (inactive)"
molecule="CCCCCC(O)C1C(=O)OC(C)C(O)/C=C/C=C/C=C/C=C\\C=C(\\C)C(O)CC(O)CC(O)CC(O)CC(O)CC(O)CC1O (stereo unspecified)" study_system=TK-10 measure_name=GI50 result="> 50 µM (inactive)"
molecule="CC(=O)NC(CC(C)C)C(=O)NC(CC(C)C)C(=O)NC(C=O)CCCNC(=N)N (stereo unspecified)" study_system=TK-10 measure_name=GI50 result="> 100 µM (inactive)"
molecule="N#CC(/N=N/c1ccccc1)c1nc2ccccc2o1 (stereo unspecified)" study_system=TK-10 measure_name=GI50 result="24.5 µM (inactive)"
molecule=C/C(=N/NC(=S)N1CCN(C(=S)N/N=C(/C)c2ccccn2)CC1)c1ccccn1 study_system=TK-10 measure_name=GI50 result="4.84 µM (inactive)"
molecule=O=C(O)CC[P+](c1ccccc1)(c1ccccc1)c1ccccc1 study_system=TK-10 measure_name=GI50 result="> 100 µM (inactive)"
molecule=N#Cc1c2ccc([N+](=O)[O-])cc2c(=O)n2c1sc1ccccc12 study_system=TK-10 measure_name=GI50 result="16 µM (inactive)"
molecule=CCOc1cc(/C=N\N(C)C)cc(/C=N\N(C)C)c1O study_system=TK-10 measure_name=GI50 result="69.2 µM (inactive)"
molecule=O=C(Nc1nn(C(=O)c2cccnc2)c(=O)s1)c1ccc(Cl)cc1 study_system=TK-10 measure_name=GI50 result="76.6 µM (inactive)"
molecule=N=C(CC/C(N)=N/O)NO study_system=TK-10 measure_name=GI50 result="> 100 µM (inactive)"
molecule=Nc1cc(Cl)ccc1SSc1ccc(Cl)cc1N study_system=TK-10 measure_name=GI50 result="20.2 µM (inactive)"
molecule=C[C@]12CC[C@@H]3c4ccc(OC(=O)c5ccccc5)cc4CC[C@H]3[C@@H]1CC[C@@H]2Oc1c2ccccc2nc2ccccc12 study_system=TK-10 measure_name=GI50 result="17.2 µM (inactive)"
molecule=CSc1[nH]cnc1C(N)=S study_system=TK-10 measure_name=GI50 result="> 100 µM (inactive)"
molecule="COc1ccc2nc3cc(Cl)ccc3c(NC(C)CCCN(CCCl)CCCl)c2c1 (stereo unspecified)" study_system=TK-10 measure_name=GI50 result="1.3 µM (inactive)"
molecule="Cc1ccc(OCC2OC(n3cnc4nc(N)nc(Cl)c43)CC2Oc2ccc(C)cc2)cc1 (stereo unspecified)" study_system=TK-10 measure_name=GI50 result="31.1 µM (inactive)"

###

Catalogue of GI50 values
tested on: KM-20L2; assay: NCI tumour cell line growth inhibition, 48 h
Activity calls are given as the source filed them. No stated cut-off is given here; in the data, active = GI50 up to about 1.1 µM and inactive = higher.
Measure name: GI50

compound="COc1ccc(OC(C)C(=O)O)c2c(=O)ccccc12 (centres undefined)" result="> 100 µM (inactive)"
compound=COC(=O)Cc1cc(=O)n2c3ccccc3n(C)c2c1C#N result="> 100 µM (inactive)"
compound=O=C(c1cccs1)N(C(=S)N1CCN(c2ccccc2)CC1)C1CCCCC1 result="> 100 µM (inactive)"
compound="NC(=O)CCCC(NCc1c2ccccc2nc2ccccc12)C(=O)O (centres undefined)" result="43.5 µM (inactive)"
compound="CC1(C)C2CCC13CS(=O)(=O)N1O[C@]13C(=O)O2 (some centres undefined)" result="> 100 µM (inactive)"
compound=Cn1nc(-c2ccccc2)c(C(=O)/C=C/c2ccc(Cl)cc2)c(N2CCOCC2)c1=O result="3.45 µM (inactive)"
compound=CC(=O)Nc1cccc(/N=N/N(C)C)c1 result="> 100 µM (inactive)"
compound="CN1CCN(CN2C(=O)C3C4C=CC(C3C2=O)C2C3C(=O)N(CN5CCN(C)CC5)C(=O)C3C42)CC1 (centres undefined)" result="25.5 µM (inactive)"
compound=CC(C)(C)c1ccnc(/N=C2\N/C(=N\c3cc(C(C)(C)C)ccn3)c3ccccc32)c1 result="13.9 µM (inactive)"
compound="COC(=O)CCC(NC(=S)N/N=C(\\C)c1cnccn1)C(=O)OC (centres undefined)" result="38.6 µM (inactive)"
compound="O=C(Nc1ccccc1C(=O)O)C(=O)C(C(=O)c1ccccc1-c1ccccc1)C1OC(=O)c2ccccc21 (centres undefined)" result="22 µM (inactive)"
compound=Cc1cccc(=O)c([O-])c1.Cc1cccc(=O)c([O-])c1.[Bi+3].[Cl-] result="2.99 µM (inactive)"
compound=COc1ccc(C(=O)NCCN(C)C)c2nc3ccccc3nc12 result="4.95 µM (inactive)"
compound="CC(C)CCCC(C)[C@H]1CCC2[C@@H]3CCC4Nc5nocc5C[C@]4(C)C3CC[C@@]21C (some centres undefined)" result="21.2 µM (inactive)"
compound="Cc1ccc(S(=O)(=O)N/N=C2\\C(=O)C3CC2C(Cl)C3Cl)cc1 (centres undefined)" result="> 100 µM (inactive)"
compound=O=C(O)CNc1c2ccccc2[n+]([O-])c2ccccc12 result="> 100 µM (inactive)"
compound="COc1cc(CC2c3cc(OC)c(OC)cc3CCN2C)c(Oc2cc3c(cc2OC)-c2c(OC)c(OC)c(OC)c4c2C(C3)N(C)CC4)cc1OC (centres undefined)" result="5.93 µM (inactive)"
compound=Cc1c(C(=O)C/C(=N/NC(=O)CC#N)C(N)=O)[n+]([O-])c2ccccc2[n+]1[O-] result="45.2 µM (inactive)"
compound=c1ccc2cc3[s+]snc3cc2c1 result="> 100 µM (inactive)"
